Origin of values: patent US20200148646A1

System Name: UniProt P41145
Procedure Details: κ-opioid receptor [35S]GTPγS functional assay, U-2 OS cells
Assay type: biochemical
Parameters: expressed in transfected cells; host or cells: U-2 OS cells (in-house membranes)
Condition Info: U2-OS cells; relative to U69,593

{"Mol Smiles": "CC(C)CCCC(=O)N[C@H]1C[C@@]2(O)[C@H]3Cc4ccc(O)cc4[C@@]2(CCN3CC2CC2)C[C@H]1O", "Emax / %": 90.2}
{"Mol Smiles": "COc1ccc2c(c1)[C@@]13CC[C@@H](O)C[C@@]1(O)[C@@H](C2)N(CC1CC1)CC3", "Emax / %": 91.3}
{"Mol Smiles": "O=C1C=C2[C@H]3Cc4ccc(O)cc4[C@]2(CC1)CCN3CC1CC1", "Emax / %": 104}
{"Mol Smiles": "CC(=O)N[C@H]1C[C@@]2(O)[C@H]3Cc4ccc(O)cc4[C@@]2(CCN3CC2CC2)C[C@H]1O", "Emax / %": 77.7}

---

System Name: human κ opioid receptor (Homo sapiens, UniProt P41145)
Sequence (P41145 whole entry): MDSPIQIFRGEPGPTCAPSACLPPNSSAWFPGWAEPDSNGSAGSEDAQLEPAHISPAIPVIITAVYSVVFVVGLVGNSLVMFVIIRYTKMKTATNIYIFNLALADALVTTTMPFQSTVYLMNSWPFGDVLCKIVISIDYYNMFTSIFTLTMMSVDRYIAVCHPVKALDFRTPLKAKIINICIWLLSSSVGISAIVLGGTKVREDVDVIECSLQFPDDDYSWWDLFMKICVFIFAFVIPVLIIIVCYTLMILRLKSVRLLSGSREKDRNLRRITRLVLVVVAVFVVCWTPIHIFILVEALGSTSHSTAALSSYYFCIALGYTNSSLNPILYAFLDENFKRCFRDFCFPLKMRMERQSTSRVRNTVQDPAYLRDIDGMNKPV
Procedure Details: κ-opioid receptor [35S]GTPγS functional assay, U-2 OS cells
Format: biochemical
Design: expressed in transfected cells; host or cells: U-2 OS cells (in-house membranes)
Condition Info: U2-OS cells; relative to U69,593

{"Molecule": "CC(C)CCC(=O)N[C@H]1C[C@@]2(O)[C@H]3Cc4ccc(O)cc4[C@@]2(CCN3CC2CC2)C[C@H]1O [Compound 61]", "System Name": "human κ opioid receptor (Homo sapiens, UniProt P41145)", "Emax": "97.7%"}
{"Molecule": "Oc1ccc2c(c1)[C@]13CCN(CC4CC4)[C@H](C2)[C@]1(O)C[C@@H](N1CCOCC1)[C@@H](O)C3 [Compound 39]", "System Name": "human κ opioid receptor (Homo sapiens, UniProt P41145)", "Emax": "1%"}
{"Molecule": "COc1ccc2c(c1)[C@]13CCN(CC4CC4)[C@H](C2)[C@]1(O)C[C@@H](NCC(C)C)[C@@H](O)C3 [Compound 33]", "System Name": "human κ opioid receptor (Homo sapiens, UniProt P41145)", "Emax": "93.7%"}
{"Molecule": "N=C(N)NCC(=O)N[C@@H]1CC[C@@]2(O)[C@H]3Cc4ccc(O)cc4[C@@]2(CCN3CC2CC2)C1 [Compound 20]", "System Name": "human κ opioid receptor (Homo sapiens, UniProt P41145)", "Emax": "111%"}
{"Molecule": "N=C(N)NCCCCN[C@@H]1CC[C@@]2(O)[C@H]3Cc4ccc(O)cc4[C@@]2(CCN3CC2CC2)C1 [Compound 16]", "System Name": "human κ opioid receptor (Homo sapiens, UniProt P41145)", "Emax": "105%"}
{"Molecule": "CC[C@H](C)C(=O)N[C@H]1C[C@@]2(O)[C@H]3Cc4ccc(O)cc4[C@@]2(CCN3CC2CC2)C[C@H]1O [Compound 59]", "System Name": "human κ opioid receptor (Homo sapiens, UniProt P41145)", "Emax": "98.3%"}
{"Molecule": "CC(C)C[C@H]1C[C@@]2(O)[C@H]3Cc4ccc(O)cc4[C@@]2(CCN3CC2CC2)C[C@H]1O [Compound 67]", "System Name": "human κ opioid receptor (Homo sapiens, UniProt P41145)", "Emax": "89.3%"}
{"Molecule": "CC(=O)N[C@H]1CC[C@]23CCN(CC4CC4)[C@H](Cc4ccc(O)cc42)[C@]3(O)C1 [Compound 47]", "System Name": "human κ opioid receptor (Homo sapiens, UniProt P41145)", "Emax": "105%"}
{"Molecule": "NCCCN[C@@H]1CC[C@@]2(O)[C@H]3Cc4ccc(O)cc4[C@@]2(CCN3CC2CC2)C1 [Compound 13]", "System Name": "human κ opioid receptor (Homo sapiens, UniProt P41145)", "Emax": "117%"}
{"Molecule": "CC(C)C(=O)N[C@H]1C[C@@]2(O)[C@H]3Cc4ccc(O)cc4[C@@]2(CCN3CC2CC2)C[C@H]1O [Compound 58]", "System Name": "human κ opioid receptor (Homo sapiens, UniProt P41145)", "Emax": "101%"}
{"Molecule": "Oc1ccc2c(c1)[C@]13CCN(CC4CC4)[C@H](C2)[C@]1(O)C[C@@H](NCc1ccccc1)[C@@H](O)C3 [Compound 36]", "System Name": "human κ opioid receptor (Homo sapiens, UniProt P41145)", "Emax": "62%"}
{"Molecule": "COc1ccc2c(c1)[C@]13CCN(CC4CC4)[C@H](C2)[C@]12C[C@H](OCc1ccccc1)[C@H](C3)O2 [Compound 102]", "System Name": "human κ opioid receptor (Homo sapiens, UniProt P41145)", "Emax": "58.3%"}
{"Molecule": "NCCN[C@@H]1CC[C@@]2(O)[C@H]3Cc4ccc(O)cc4[C@@]2(CCN3CC2CC2)C1 [Compound 11]", "System Name": "human κ opioid receptor (Homo sapiens, UniProt P41145)", "Emax": "119%"}
{"Molecule": "N=C(N)Nc1ccc(N[C@@H]2CC[C@@]3(O)[C@H]4Cc5ccc(O)cc5[C@@]3(CCN4CC3CC3)C2)cc1 [Compound 24]", "System Name": "human κ opioid receptor (Homo sapiens, UniProt P41145)", "Emax": "104%"}
